Where do these numbers come from? They come from ChEMBL document CHEMBL3232993.

- SYSTEM: Glutamate NMDA receptor; Grin1/Grin2c (Rattus norvegicus) (UniProt P35439+Q00961)
- ASSAY_DETAILS: Potentiation of rat recombinant GluN1/GluN2C expressed in Xenopus laevis oocytes assessed as increase in glutamate/glycine-induced current response at 30 uM by two-electrode voltage clamp technique relative to control
- Assay type: cell-based
MEASURED_ENDPOINT: max activation

Example compounds with recorded max activation:
COMPOUND: COC(=O)c1ccc(C2C(C(C)=O)=C(OC(C)=O)C(=O)N2CCc2c[nH]c3ccccc23)cc1 (stereo not given)
DATA_VALUE: 173%

COMPOUND: CCOC(=O)c1ccc(C2C(C(=O)c3ccncc3)=C(O)C(=O)N2CCc2c[nH]c3ccccc23)cc1 (stereo not given)
DATA_VALUE: 245%

COMPOUND: COC(=O)c1ccc(C2C(C(=O)c3cccnc3)=C(O)C(=O)N2CCc2c[nH]c3cc(C)ccc23)cc1 (stereo not given)
DATA_VALUE: 218%

COMPOUND: COC(=O)c1ccc(C2C(C(C)=O)=C(O)C(=O)N2CCc2c[nH]c3ccccc23)c(Cl)c1 (stereo not given)
DATA_VALUE: 191%

# input for lookup
[ask] Provide measured max activation on Glutamate NMDA receptor; Grin1/Grin2c (Rattus norvegicus) (UniProt P35439+Q00961) for COC(=O)c1ccc(C2C(C(=O)c3ccncc3)=C(O)C(=O)N2CCc2c[nH]c3ccccc23)cc1 (stereo not given) please.
[reply] 196%
